- ASSAYED_SYSTEM: T1, EsCas13d, nuclease-dead (Eubacterium siraeum, UniProt B0MS50, R295A;H300A;R849A;H854A)
- T1 sequence: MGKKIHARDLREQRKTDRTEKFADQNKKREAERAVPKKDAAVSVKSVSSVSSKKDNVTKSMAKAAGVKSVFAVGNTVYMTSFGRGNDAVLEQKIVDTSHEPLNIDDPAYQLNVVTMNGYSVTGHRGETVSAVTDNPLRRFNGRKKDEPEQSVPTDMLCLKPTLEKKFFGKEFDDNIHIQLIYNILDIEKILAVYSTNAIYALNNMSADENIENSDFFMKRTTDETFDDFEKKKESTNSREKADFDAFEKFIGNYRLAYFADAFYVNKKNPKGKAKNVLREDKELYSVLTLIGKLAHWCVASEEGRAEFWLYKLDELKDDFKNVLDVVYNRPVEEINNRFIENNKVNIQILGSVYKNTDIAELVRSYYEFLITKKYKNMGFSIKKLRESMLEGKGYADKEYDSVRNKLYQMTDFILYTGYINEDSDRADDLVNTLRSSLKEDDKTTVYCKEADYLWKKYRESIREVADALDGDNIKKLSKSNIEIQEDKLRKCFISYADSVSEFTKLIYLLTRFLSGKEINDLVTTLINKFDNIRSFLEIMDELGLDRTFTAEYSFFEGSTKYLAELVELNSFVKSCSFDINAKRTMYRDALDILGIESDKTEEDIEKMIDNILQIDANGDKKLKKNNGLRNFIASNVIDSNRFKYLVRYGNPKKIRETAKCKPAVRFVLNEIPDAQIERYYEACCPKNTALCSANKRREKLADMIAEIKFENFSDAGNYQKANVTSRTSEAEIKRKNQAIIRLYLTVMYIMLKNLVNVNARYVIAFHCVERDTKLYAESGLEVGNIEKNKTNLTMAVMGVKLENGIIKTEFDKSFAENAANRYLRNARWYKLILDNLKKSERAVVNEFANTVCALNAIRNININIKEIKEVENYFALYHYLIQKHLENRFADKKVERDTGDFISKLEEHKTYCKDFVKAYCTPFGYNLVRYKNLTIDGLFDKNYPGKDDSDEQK
- MEASUREMENT_DESCRIPTION: crRNA (strand 1, pre-loaded); Mg2+; 40 mM Tris-HCl pH 7.5, 150 mM NaCl, 6 mM MgCl2, 1 mM DTT, 0.1% Tween-20, 0.2 mg/ml BSA; 25 C; 10 min per concentration, then washed
- ASSAY_CONDITIONS: tags: His6-TwinStrep-SUMO cleaved; N-terminal SNAP kept (SNAP-Surface 488); label: 3' end held by stalled T7 RNA polymerase
ASSAY_ENDPOINT: Kd (nM)

>>> measured_result("target 1 MT 5'PFS AGG 3'PFS CGC (mixed) RNA 1: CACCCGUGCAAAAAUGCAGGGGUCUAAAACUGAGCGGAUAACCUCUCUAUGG RNA 2: GGGAAUGGAUCCACAUCUACGAAUUCAGGCCAUAGAGAGGUUAUCCGCUCACGCAGAUCGGAAGAGCACACGU")
44
>>> measured_result("target 1 C7A,C21A (mixed) RNA 1: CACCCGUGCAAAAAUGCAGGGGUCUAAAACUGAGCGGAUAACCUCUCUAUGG RNA 2: GGGAAUGGAUCCACAUCUACGAAUUCGUACAAUAGAGAGGUUAUACGCUCACCGAGAUCGGAAGAGCACACGU")
36
>>> measured_result("target 2 MT 5'PFS AGU 3'PFS CAG (mixed) RNA 1: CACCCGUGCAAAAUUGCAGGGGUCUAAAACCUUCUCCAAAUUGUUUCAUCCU RNA 2: GGGAAUGGAUCCACAUCUACGAAUUCAGUAGGAUGAAACAAUUUGGAGAAGCAGAGAUCGGAAGAGCACACGU")
14.2
>>> measured_result("target 2 MT 5'PFS GGU 3'PFS UGU (mixed) RNA 1: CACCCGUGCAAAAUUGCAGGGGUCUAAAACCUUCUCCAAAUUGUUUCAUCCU RNA 2: GGGAAUGGAUCCACAUCUACGAAUUCGGUAGGAUGAAACAAUUUGGAGAAGUGUAGAUCGGAAGAGCACACGU")
33
>>> measured_result("target 1 insC 3' of 17,insA 3' of 8 (mixed) RNA 1: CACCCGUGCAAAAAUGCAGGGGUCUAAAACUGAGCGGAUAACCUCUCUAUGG RNA 2: GGGAAUGGAUCCACAUCUACGAAUUCGUACCAUAGCAGAGGUUAUACCGCUCACCGAGAUCGGAAGAGCACACGU")
52
>>> measured_result("target 1 C4U,C7A (mixed) RNA 1: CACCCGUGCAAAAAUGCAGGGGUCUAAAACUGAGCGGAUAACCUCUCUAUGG RNA 2: GGGAAUGGAUCCACAUCUACGAAUUCGUACCAUAGAGAGGUUAUACGUUCACCGAGAUCGGAAGAGCACACGU")
11.2
>>> measured_result("target 2 MT 5'PFS UGG 3'PFS CCU (mixed) RNA 1: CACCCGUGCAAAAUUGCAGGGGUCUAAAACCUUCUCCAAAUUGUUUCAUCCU RNA 2: GGGAAUGGAUCCACAUCUACGAAUUCUGGAGGAUGAAACAAUUUGGAGAAGCCUAGAUCGGAAGAGCACACGU")
68
